molecular target: UniProt:Q873X9; assay: biochemical; assay type: biochemical; conditions: 2 nM enzyme, 20 μM substrate, pH 5.5, 10 min at 37° C.; read-out: AfChiB1 IC50
Measured IC50, listed per entry for reference.
Express the result in µM but write the number alone.

> print(dat)
                     molecule  readoutname  testresult
1  Cn1c(=O)c2[nH]cnc2n(C)c1=O         IC50        1500

# input for lookup
Q: Recorded IC50 of CC(=O)CCCCn1c(=O)c2c(ncn2C)n(C)c1=O , please.
Ans: 126

* * *

Biological target: M.Chito (mouse chitotriosidase) (Mus musculus, UniProt Q9D7Q1)
Sequence (Q9D7Q1 22-464): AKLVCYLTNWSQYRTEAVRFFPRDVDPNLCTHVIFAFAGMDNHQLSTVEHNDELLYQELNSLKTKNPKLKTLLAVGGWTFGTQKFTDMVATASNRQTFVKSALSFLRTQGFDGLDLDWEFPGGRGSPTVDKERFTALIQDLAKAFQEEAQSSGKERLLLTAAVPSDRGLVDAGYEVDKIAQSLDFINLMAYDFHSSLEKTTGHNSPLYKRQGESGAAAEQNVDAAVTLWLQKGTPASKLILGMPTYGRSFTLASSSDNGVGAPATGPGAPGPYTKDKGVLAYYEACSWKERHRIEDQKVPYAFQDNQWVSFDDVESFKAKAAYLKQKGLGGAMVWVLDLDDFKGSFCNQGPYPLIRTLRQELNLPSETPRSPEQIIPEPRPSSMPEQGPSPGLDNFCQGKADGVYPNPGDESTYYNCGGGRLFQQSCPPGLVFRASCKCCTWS
Assay: Further inhibition studies, mouse chitotriosidase (Table 2)
Format: biochemical
Conditions: mouse chitotriosidase, Bio substrate, pH 5.2; read-out: M.Chito Bio pH 5.2 (IC50)
From the text: Inhibition Studies on Human and Mouse AMCase and Chitotriosidase
pIC50: −log10 of the molar value.
# pIC50 per entry

> print(dat)
                                   compound  readoutname  testresult
1  CC(=O)CCCCn1c(=O)c2c(ncn2C)n(C)c1=O [pentoxifylline]        pIC50       ~3.00

Now look at this entry.
Q: # query: pIC50 | item Cn1c(=O)c2c(ncn2C)n(C)c1=O [caffeine] | system: M.Chito (mouse chitotriosidase) (Mus musculus, UniProt Q9D7Q1)
Ans: < 3.00
